assay_overview: yeast display, Sf9 membrane polyspecificity reagent, FACS + sequencing; frameworks hold sequencing errors
experimental_readout: polyreactivity (PSR sort gate)

Worked examples follow.
QVQLVESGGGLVQAGGSLRLSCAASGRTLRGNAMGWYRQAPGKERELVAGITSGGSTNYADSVKGRFTISRDNAKNTVYLQMNSLKPEDTAVYYCAAAYYLSFGRYYTNYDYWGQGTQVTVSS: high polyreactivity
QVQLVESGGGLVQAGGSLRLSCAASGGTFIANAMGWYRQAPGKERELVATINANADTTYYADSVKGRFTISRDNAKNTVYLQMNSLKPEDTAVYYCAAAQRYPIKYYYWGQGTQVTVSS: low polyreactivity
QVQLVESGGGLVQAGGSLRLSCAASGFIFDKNAMGWYRQAPGKERELVAAISSGGGSTDYADAVKGRFTISRDNAKNPDYLHMNSLKPEDTAVYYCARYWDQLQQYVISFGRYGMDYWGQGTQVTVSS: high polyreactivity
QVQLVESGGGLVQAGGSLRLSCAASGRTFDSNAMGLYRQAPGKERELVAAISYGGGTTHYADSVKGRFTISRDNAKNTVYLQMNSLKPEDTAVYYCAADPEHQWESVTIGEYDYWGQGTQVTVSS: low polyreactivity
QVQLVESGGGLVQAGGSLRLSCAASGRIFSAYVMGWYRQAPGKERELVAAISSGGSRTSYADSVKGRVTISRDNAKNTVYLQMISLKPEDTAVYYCAASATFWGQGTQVNVSS: high polyreactivity
QVQLEDSGGGLVQAGGSLRLSCAASGSTFYTYAMGWYRQAPGKERELVAAITFIDGSTYYADSVKGRFTISRDNAKNTVYLQMNSLKPEDTAVYYCAADDAKFRYRDDYWGQGTQVTVSS: low polyreactivity
QVQLVESGGGLVQAGGSLRLSCAASGSTFEVYAMGWYRQAPGKERELVAAINSRGTSTYYADSVKGRFTISRDNAKNTVYLQMNSLKPEDTAVYYCNAVRDWGPSQVYDGMDYWGQGTQVTVSS: low polyreactivity
QVQLVESGGGLVQAGGSLRLSCAASGFTFVRNTMGWYRQAPGKERELVAAISRSGGSTYYADSVKGRFTISRDNAKNTVYLQMYSLKPEDTAVYYCNAYRYVHYDWGQGSQVTVSS: high polyreactivity

Bench note: what polyreactivity (PSR sort gate) did QVQLVESGGGLVQAGGSLRLSCAASGITFLRYAMGWYRQAPGKERELVATIRTGGTTNYADSVKGRFTISRDNAKNTVYLLMISLKPEDTAVYYCAVDWSRQAHKFNYWGQGTQVTVSS show?
high polyreactivity

Bench note: what polyreactivity (PSR sort gate) did QVQLVESGGGLVQAGGSLRLSCAASGSTLWGYVMGWYRQAPGKERELVAVISKSGGSTYYADSVKGRFTISRDNAKNTVYLQMNSLKPEDTAVYYCATRGPYRSDWGQGTQVTVSS show?
high polyreactivity

Bench note: what polyreactivity (PSR sort gate) did QVQLVESVGGLVQAGGSLRLSCAASGRTLGGNAMGWYRQAPGKERELVAAITNSASTYADSVKGRFTISRDNAKNTVYLQMNSLKPEDTAVYYCNAPDPSDQHGDYWGQGTQVTVSS show?
low polyreactivity

====

assay_overview: yeast display, Sf9 membrane polyspecificity reagent, FACS + sequencing; frameworks hold sequencing errors
experimental_readout: polyreactivity (PSR sort gate)

Worked examples follow.
QVQLLESGGGLVQAGGSLRLSCAASGLTFVRYDMGWDRQAPGKERELVAAISSSGGSTNYADSVKGRFTISRDNAKNTVYLQMNSLKPEDTAVYYCAADYTWRFLRFGYWGQGTQVTVSS: high polyreactivity
QLQLQESGGGLVQADGSLRLSCAASGSIFGYYYMGWYRQAPGKDRELVATINICGITNYADSVKGRFTISRDNAKNTVYLQMNSLKPDDTAVYYCAADEYAQRDLGYWGQGTQVTVSS: low polyreactivity
QVQLVESGGGLVQAGGSLRLSCAASGRTLQSYAMGWYRQAPGKERELVAAITSTGTTYYADSVKGRFTISRDNAKNTVYLQMNSLKPEDTAVYYCAAGGSIVLGHYHYVKMYYWGQGTQVTVSS: high polyreactivity
HVQLVDSGGGLVQAGGSLRLSCAASGRTFSHNAMGWYRQAPGKDRELVATITYGAGRTSYADSVKGRFTISRDNAKNTLYLQMNSLKPEDTAVYYCNADYFTYRGGEYRRYEYWGQGTQVTVST: high polyreactivity
QVQLVESGGGLVQAGGSLRLSCAASGSNYYYYAIGWYRQAPGKERELVAAISWSGASTFYADSVKGRFTSSRDNAKNTVYLQMNSLKPEDTAVYYCAARYYGQPQYQPLYYWGQGTQVTVSS: high polyreactivity
QVQLQESGGGLVQAGGSLRLSCSASGNISVTGVMGWYRQAPGKERELVPSIGIGGTTYYADSVKGRFSISRDNATITVYLQMNSLKPQDTAVYYCAARYLYYAYSYWGQGTQVTVSS: low polyreactivity

Bench note: what polyreactivity (PSR sort gate) did QVLLVESAGGLVQAGGSLRLSCAASGRTFYRYAMGWYRQAPGKERELVAVISWTSGSTYYADSVKGRFTISRDNAKNTVYLQMNSLKPEDTAVYYCAARRGGSYRYEYWGQGTQVTVSS show?
high polyreactivity

Bench note: what polyreactivity (PSR sort gate) did QVQLVESGGGLVQAGGSLRLSCASSGRIFGLYAMGWYRHAPGKERELVAAITLSGDGTDYADSVKGRFTISRDNAKNTVYLQMNSLKPEDTAVYYCAKVGQYWWNMDYWGQGTQVTVSS show?
low polyreactivity

Bench note: what polyreactivity (PSR sort gate) did QVQLVESGGGLVQAGGSLRLSCAASGSIFGPYAMGWYRQAPGKERELVADIRTSGGGTYYADSVKGRFTISRDNAKNTVYLQMNSLKPEDTAVYYCNADPKWEMGSWGQGTQVTVSS show?
low polyreactivity

Bench note: what polyreactivity (PSR sort gate) did QVQLVESGGGLVQAGGSLRLSCAASGFTFSWNTMGWYRQAPGKERELVATISGSGGRTYYADSVKGRFTISRDKAKNTVYLQLNSLKPEDTAVYYCAKRRASRYYWGQGTQVTVSS show?
high polyreactivity

Bench note: what polyreactivity (PSR sort gate) did QVQLVESGGGLVQAGGSLRLSCAASGSIFARNAMGWSRQAPGKERELVAGISRRGGSTYYADSVKGRFTISRDNAKNTVYLQMNSLKPEDTAVYYCNAVVYSPPYDYWGQGTQVTVSS show?
high polyreactivity
